Molecular target: T1, mouse IL-4R (mouse, UniProt P16382 26-233, limits assumed)
T1 sequence (looked up): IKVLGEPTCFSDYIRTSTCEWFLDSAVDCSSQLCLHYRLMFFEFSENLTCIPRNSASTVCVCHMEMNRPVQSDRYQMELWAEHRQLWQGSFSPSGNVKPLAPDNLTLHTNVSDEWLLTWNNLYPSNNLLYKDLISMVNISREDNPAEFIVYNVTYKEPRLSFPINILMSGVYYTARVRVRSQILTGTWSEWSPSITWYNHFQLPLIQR
Assay: binding affinity test of Example 2 (method not restated)
OBSERVATION_TYPE: binding result

>>> result("VAB 4D5-3 (antibody, V domains shown, Apparently tested with mouse constant region (anti-mouse IgG capture/detection)) VH: QVQLVQSGPEVKKPGASVKVSCKASGYTFTNYGISWVRQAPGQGLEWMGWISVYNGKTNYAQKFQGRVTMTTDTSTSTAYMDLRSLRSDDTAVYYCARGSGYDFDYWGQGTLVTVSS VL: AIQMTQSPSSLSASVGDRVTITCRASQGIRNALGWYQQKPGKAPKLLIFASSSLQSGVPSRFSGSGSGTDFTLTIRSLQPEDFAAYYCLQDYNYPYTFGQGTKLEIK")
"no binding"
>>> result("VAB 10G8-19 (antibody, V domains shown, Apparently tested with mouse constant region (anti-mouse IgG capture/detection)) VH: QVQLVQSGAEVKKPGASVKVSCKASRYTFTSYDINWVRQATGQGLEWMGWMNPNSGNTGYAQKFQGRVTMTRNTSTSTAYMELSSLRSEDTAVYYCARVRRFFDYWGQGTLVTVSS VL: DIQLTQSPSFLSASVGDRVTITCWASQGIISYLAWYQQKPGKAPKLLIYAASTLHSGVPSRFSGSGSGTEFTLTISSLQPEDFATYYCHQLKSYPITFGQGTRLEIK")
"no binding"
>>> result("VX 4E7-9 (antibody, V domains shown, 387/389; Apparently tested with mouse constant region (anti-mouse IgG capture/detection)) VH: QVQLVQSGAEVKKPGASVKVSCKASGYTFTNYGISWVRQAPGQGLEWMGWISVYNGKTNYAQKLQGRVTMTTDTSTTTAYMEMRSLRSDDTAVYYCARGSGYDLDYWGQGTLVSVSS VL: AIQMTQSPSSLSASVGDRVTITCRASQGIRNALGWYQQKPGKAPKLLIYAASSLQSGVPSRFSGSGSGTDFTLTFSSLQPEDFATYYCLQDFNYPYTFGQGTKLEIK")
"no binding"
